# ASSAY_DETAILS: Pharmacokinetic experiment, single intragastric administration, plasma by HPLC-UV
# Assay type: in vivo, SD rats
# REPORTED_CONDITIONS: SD (Sprague-Dawley), rat, plasma, po, plasma, Group B (CUR 200 mg kg^−1 and PIP 150 mg kg^−1 oral), 210 min; read-out: Mean concentrations ±sd, DHC
PROPERTY_LABEL: concentration at 210 min (ng/mL)
Hi! Could you send only the number? It should be in ng/mL, unit omitted.

// query Return value of concentration at 210 min for input COc1cc(/C=C/C(=O)CC(=O)CCc2ccc(O)c(OC)c2)ccc1O [DHC, Dihydrocurcumin] , no commentary.
// result 600
